Sequence of the target: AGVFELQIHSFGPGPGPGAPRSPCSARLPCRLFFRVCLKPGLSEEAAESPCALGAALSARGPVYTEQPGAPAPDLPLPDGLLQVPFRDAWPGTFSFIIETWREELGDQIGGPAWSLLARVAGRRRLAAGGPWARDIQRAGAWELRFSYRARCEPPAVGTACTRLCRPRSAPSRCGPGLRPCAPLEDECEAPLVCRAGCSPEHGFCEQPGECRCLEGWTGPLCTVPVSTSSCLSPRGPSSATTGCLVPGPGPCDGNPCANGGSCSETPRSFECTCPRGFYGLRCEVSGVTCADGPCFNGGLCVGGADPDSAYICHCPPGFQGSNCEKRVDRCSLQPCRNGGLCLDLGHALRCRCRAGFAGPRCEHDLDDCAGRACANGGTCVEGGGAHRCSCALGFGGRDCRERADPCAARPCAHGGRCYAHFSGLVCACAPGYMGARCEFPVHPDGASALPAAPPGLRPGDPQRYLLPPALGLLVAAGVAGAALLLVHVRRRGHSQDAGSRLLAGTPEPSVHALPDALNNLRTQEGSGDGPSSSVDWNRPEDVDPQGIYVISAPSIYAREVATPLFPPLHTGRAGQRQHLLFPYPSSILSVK
Bridge positions count the residues as written; N and C are the ends. Square brackets hold non-standard residues; d marks the D form. Peptide text beside a SMILES is read from it. * marks the point of attachment. DOTA = O=C(O)CN1CCN(CC(=O)O)CCN(CC(=O)*)CCN(CC(=O)O)CC1; Chg = N[C@H](C(=O)O)C1CCCCC1
observable: Kd

CSCC[C@H](NC(C)=O)C(=O)N[C@@H](CO)C(=O)N[C@@H](CC(=O)O)C(=O)N[C@H]1CSSC[C@@H](C(=O)N2CCC[C@H]2C(=O)N[C@@H](Cc2ccccc2)C(=O)N[C@@H](CC(=O)O)C(N)=O)NC(=O)[C@H](CC(N)=O)NC(=O)[C@H](Cc2c[nH]c3ccccc23)NC(=O)[C@H](CCC(N)=O)NC(=O)[C@H](CC(C)C)NC(=O)[C@H](C)NC1=O [compound 22] (Ac-MSDCALQWNCPFD-NH2; disulfide 4-10): > 100 nM

Kindly consider the entry below.
// query Fill in the blank: the reported Kd of CC(=O)N[C@H](C(=O)N[C@@H](CO)C(=O)N[C@@H](CC(=O)O)C(=O)N[C@H]1CSSC[C@@H](C(=O)N2CCC[C@H]2C(=O)N[C@@H](Cc2ccccc2)C(=O)N[C@@H](CC(=O)O)C(N)=O)NC(=O)[C@H](CCCCNC(=O)CN2CCN(CC(=O)O)CCN(CC(=O)O)CCN(CC(=O)O)CC2)NC(=O)[C@H](Cc2c[nH]c3ccccc23)NC(=O)[C@H](CCC(N)=O)NC(=O)[C@H](CC(C)C)NC(=O)[C@H](Cc2c[nH]c3ccccc23)NC1=O)C1CCCCC1 [compound 100] (Ac-[Chg]SDCWLQWK(DOTA)CPFD-NH2; disulfide 4-10) is ____.
// result > 300 nM
